# ASSAY METHOD TEXT: qHTS assay for small molecule agonists of the p53 signaling pathway - cell viability (AID 651633); also: nearly all actives have a fitted effect of over 30% in size; also: potency is read from the fitted curve at half-maximal effect
# EXPERIMENTAL SETUP: p53RE-bla HCT-116 viability, ATP luminescence, 16 h; series mostly up to 83.3 µM
Records with an inconclusive call do not appear. Calls of active or inactive are those of the source. Calls follow the shape of the full dose curve.

# MOLECULE, Potency
rows = [
    ("NC(=O)CN1CC(O)CC1=O (stereo not given)", "inactive"),
    ("CCC(=O)O[C@@](Cc1ccccc1)(c1ccccc1)[C@@H](C)CN(C)C", "inactive"),
    ("O=[N+]([O-])c1cc(I)c(O)c(I)c1", "3.76 µM (active)"),
    ("CN1C(=O)CC(=O)N(c2ccccc2)c2cc(Cl)ccc21", "inactive"),
    ("C=CCC1([C@@H](C)CCC)C(=O)NC(=O)NC1=O", "inactive"),
]
